- Test Method Notes: Transcellular transport
- Reported Conditions: human
Reported Endpoint: Papp B→A (×10⁻⁶ cm/s)
Your answer should be a plain number; it is taken to be in ×10⁻⁶ cm/s.

Reported Papp B→A of COCCn1c2c([n+](Cc3cnccn3)c1C)C(=O)c1ccccc1C2=O : 1.32

Reported Papp B→A of NCC1(CC(=O)O)CCCCC1 : 0.213

Reported Papp B→A of O=C1CN(/N=C/c2ccc(-c3ccc([N+](=O)[O-])cc3)o2)C(O)=N1 [Dantrolene, Dantrolene sodium] : 11.5

Reported Papp B→A of CCCc1nc2c(C)cc(-c3nc4ccccc4n3C)cc2n1Cc1ccc(-c2ccccc2C(=O)O)cc1 : 10.5
